target: T1, Abeta42 beta amyloid peptide (UniProt P05067 672-713); experiment: competition ELISA on coated beta amyloid, purified antibody, n=2; competitor biotinylated chimeric mouse 6E10
T1 construct: domain: Abeta42; also called Aβ42; beta amyloid (Covance)
T1 sequence (P05067 672-713 limits assumed): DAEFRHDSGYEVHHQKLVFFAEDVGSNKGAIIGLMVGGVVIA
// values below are reported IC50
Lab book: enter the figure in µg/mL, no units written.

Answered examples (2):
composite human antibody variant VH5/VK2 (antibody, human IgG1, V domains shown, Human IgG1/kappa (pANT15/pANT13)) VH: QVQLVQSGAEVKKPGASVKVSCTASGFNIKDTYIHWVRQARGQRLEWIGRFDPVNVNTRYDSRFRGRVTITSDASTSTAYMELSSLRSEDTAVYYCSRSYYNGRRRFTYWGQGTLVTVSS VL: DIVMTQSPSSLTASVGDRVTITCKASQSLLSSGNQKNYLTWYQQKPGQPPKLLIYWASIRESGVPDRFTGSGSGTFFTLTISSLQAEDVAVYYCQNDYNYPFTFGQGTKLEIK
2.6
composite human antibody variant VH4/VK1 (antibody, human IgG1, V domains shown, Human IgG1/kappa (pANT15/pANT13)) VH: QVQLVQSGAEVKKPGASVKVSCTASGFNIKDTYIHWVRQARGQRLEWIGRFDPVNVNTRYDSRFRGRVTITSDASTNTAYMELSSLRSEDTAVYYCSRSYYNGRRRFTYWGQGTLVTVSS VL: DIVMTQSPDSLTVSLGERATINCKASQSLLSSGNQKNYLTWYQQKPGQPPKLLIYWASIRESGVPDRFTGSGSGTFFTLTISSLQAEDVAVYYCQNDYNYPFTFGQGTKLEIK
4.1

Ask: Which IC50 value belongs to MDT-2007 (composite human antibody sequence variant VH4/VK2) (antibody, V domains shown, Human IgG1/kappa (pANT15/pANT13)) VH: QVQLVQSGAEVKKPGASVKVSCTASGFNIKDTYIHWVRQARGQRLEWIGRFDPVNVNTRYDSRFRGRVTITSDASTNTAYMELSSLRSEDTAVYYCSRSYYNGRRRFTYWGQGTLVTVSS VL: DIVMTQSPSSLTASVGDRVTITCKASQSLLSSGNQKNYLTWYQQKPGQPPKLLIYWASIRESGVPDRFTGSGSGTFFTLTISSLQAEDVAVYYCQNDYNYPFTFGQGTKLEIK ?
Reply: 2.1

Reference for the values: patent US20110202000A1
